Tested on: synthesis of LTB4 by rat glycogen-elicited polymorphonuclear leukocytes (lipoxygenase)
experiment-notes: inhibition of LTB4 (5,12-diHETE) synthesis by rat glycogen-elicited polymorphonuclear leukocytes
Type: cell-based, rat (female Wistar)
condition-label: Leukocyte, read-out: 50% Inhibitory Concentration (IC50) LTB4; rat peritoneal PMN, A23187 10 μM, [14C]arachidonic acid, 10 min preincubation at 37° C.
pIC50: −log10 of the molar value.
assay-endpoint: pIC50

Known pIC50 results, listed for orientation:
INSERT INTO assay_data (compound, test_value) VALUES
  ('NC1=NN(c2cccc(C(F)(F)F)c2)CC1 [BW755C, reference compound]', 4.52),
  ('CCCCCCc1ccc(OCc2cccc(NC(=O)CC(=O)OC)c2)cc1OC', 5.77),
  ('CCc1ccc(OCc2cccc(NC(=O)CCC(=O)OC)c2)cc1OC', 5.15);

(1) COC(=O)CC(=O)Nc1cccc(COc2ccc(C(C)=O)c(O)c2)c1
(2) CCCCCC(=O)c1ccc(OCc2cccc(NC(=O)CCC(=O)OC)c2)cc1OC
Incoming: Lower value of pIC50 belongs to which: 1 or 2 ? Please indicate the selected item by its label.
Outgoing: 1
